# Assay details: NCI Yeast Anticancer Drug Screen. Data for the sgs1 mgt1 strain (AID 161);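 also: 0% = growth of cultures given vehicle only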
# Measurement conditions: S. cerevisiae sgs1 mgt1 strain, at 50.0 µM, stronger effect = higher value
About 79,000 compounds went through this panel and 15% of them were active in at least one assay; those are over-represented in the sample as a whole.
growth inhibition listing for selected molecules.
Response body: numeric value in %, unit text excluded.

Cc1ccccc1S(=O)(=O)Nn1cnc2ccc(S(=O)(=O)Nc3ccc(Cl)cc3)cc2c1=O | 40.6
Cc1cc(N=Nc2cc(Br)cc(Br)c2)cc(C)c1N | 18.1
O=C(c1ccccc1)c1c(-c2ccccc2)sc2nc3ccccc3nc12 | 3.2
Nc1nc(-c2ccc3c(ccc4ccccc43)c2)cs1 | 18.2
CC(=O)CC(=O)Nc1ccc(NC(=O)CC(C)=O)cc1 | -21.1

From here, focus on the item given below.
Any idea what its growth inhibition is? The molecule is Nc1ccc(N(C(=O)c2ccccc2)C(=O)c2ccccc2)c(-c2ccccc2)c1
6.15

---

# Assay details: NCI Yeast Anticancer Drug Screen. Data for the cln2 rad14 strain (AID 165);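 also: 0% = growth equal to vehicle treated cultures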
# Measurement conditions: S. cerevisiae cln2 rad14 strain, at 50.0 µM
The panel holds about 79,000 compounds, 15% with a hit somewhere; the sample as a whole holds those more often. Activity calls are given as the source filed them. Rule as the data show it: active = growth inhibition above about 70%; inactive = the rest. *1 amine or outer side, *2 acyl side, *3 side chain or, on linkers, in order; H or OH if unused. Where a SMILES comes first, the peptide text is derived from it. Bridges are numbered along the chain shown (N, C = ends). Roman numbers before positions name the chains, in order. [ ]: non-standard residue; d: D form. Actinocin(1to9) = Cc1c2oc3c(C)ccc(C(=O)[*:2])c3nc-2c(C(=O)[*:1])c(N)c1=O; NMeV = CN[CH](C(=O)O)C(C)C; Aze = O=C(O)[CH]1CCN1; Sar = CNCC(=O)O
Form entry, call: pick from Y = active, N = inactive

Example entries and their recorded answers appear below.
Cc1ccc2c(c1)CN(C)c1ccc(C)cc1CN2C | N
CC(C)(C)NC(=O)C12C3C4C1C1C2C3C41C(=O)NC(C)(C)C (stereo not drawn) | N
O=C(O)C1(C(=O)O)Cc2ccccc2C1 | N

What classification did Cc1c2oc3c(C)ccc(C(=O)NC4C(=O)NC(C(C)C)C(=O)N5CCCC5C(=O)N(C)CC(=O)N(C)C(C(C)C)C(=O)OC4C)c3nc-2c(C(=O)NC2C(=O)NC(C(C)C)C(=O)N3CCC3C(=O)N(C)CC(=O)N(C)C(C(C)C)C(=O)OC2C)c(N)c1=O (stereo not drawn) (I: TV[Aze][Sar][NMeV] / II: TVP[Sar][NMeV]; ester I:1-I:C, II:1-II:C; linker I:N-II:N via Actinocin(1to9); configuration not given here) end up with in this test?
Y

Request: Cc1nc2ccccc2c(=O)n1C(C)(C)CCl
N

Same question, Oc1ccc(O)c2c1CC=CC2 this time
N

Please answer likewise for CC1(C)CC(N(CCO)CCO)CC(C)(C)N1O
N

Also need Cc1ccccc1OS(=O)(=O)c1ccc(Br)cc1 , thanks.
N

---

# Assay details: NCI Yeast Anticancer Drug Screen. Data for the mec2-1 strain (AID 157)
# Measurement conditions: S. cerevisiae mec2-1 strain, at 50.0 µM, stronger effect = higher value
About 79,000 compounds went through this panel and 15% of them were active in at least one assay; those are over-represented in the sample as a whole. The source made the active and inactive calls. No stated cut-off is given here; in the data, active means growth inhibition above about 70%; inactive means the rest.
Reported values of growth inhibition for individual entries

c1ccc(-c2cccc(-c3ccccc3)n2)cc1 | 33.9% (inactive)
CCn1c(=O)c2[nH]c(Br)nc2n(CC)c1=O | -0.6% (inactive)

Please look up its growth inhibition: COC(=O)/C=C/C=C/C(=O)OC
-1.7% (inactive)

---

# Assay details: NCI Yeast Anticancer Drug Screen. Data for the bub3 strain (AID 167)
# Measurement conditions: S. cerevisiae bub3 mutant strain, at 50.0 µM, stronger effect = higher value
# Protocol: Growth inhibition of yeast strains with defined genetic alterations is measured as a screen for potential anti-cancer activity. Selected strains with alterations in DNA damage repair or cell cycle control were exposed to compounds and growth inhibition was measured relative to vehicle treated controls. The strain used in this assay is bub3
About 79,000 compounds went through this panel and 15% of them were active in at least one assay; those are over-represented in the sample as a whole.
Measurement kind: growth inhibition (%)
// return numeric value only (unit: %, not printed)

Param item = O=S(=O)(O)c1cc[n+]([O-])cc1 ; retrieve measured growth inhibition.
11.8

Check CC12CCC(C(Br)C1=O)C2(C)CBr (configuration not stated) too.
9

One more molecule: O=C(NCCN1CCNCC1)c1ccc(Cl)cc1
33.6

---

# Assay details: NCI Yeast Anticancer Drug Screen. Data for the sgs1 mgt1 strain (AID 161);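 also: 0% = growth of cultures given vehicle only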
# Measurement conditions: S. cerevisiae sgs1 mgt1 strain, at 50.0 µM, stronger effect = higher value
This is part of a sample that, as a whole, favours compounds with a hit. Of some 79,000 tested, about 15% had one in any assay.
Measurement kind: growth inhibition (%)
Field format: number, assumed %, no unit text.

Example entries begin here.
C(=C\c1cc(-c2ccc3ccccc3n2)nc2ccc3ccccc3c12)/c1ccc2ccccc2n1 | 26.9
O=S1(=O)CCNc2ccccc2O1 | -3.55
CS(=O)(=O)c1cc(=O)[nH]c(=O)[nH]1 | 18.2
CC(=O)OCCn1c([N+](=O)[O-])cnc1/C=[N+](/C)[O-] | 16.8

# query: growth inhibition of entry CC(=O)N[C@H](CO)[C@H](O)c1ccc([N+](=O)[O-])cc1
9

Try the compound CCOC(=O)c1nc2ccc(C(F)(F)F)cc2[nH]c1=O
-17.4

Then this compound: c1ccc(-c2nc(-c3ccccn3)cc3ccccc23)cc1
10

What do you have for C[N+]1(C)CCCC(CO)(c2ccccc2)CC1 (configuration not stated) ?
3.3

How about CC1(C(=O)O)C2CCC(C2)C1C(=O)O (configuration not stated) ?
-2.7

Record: COC(=O)c1nc(N)nc(C(=O)OC)c1C(=O)c1cccnc1
-0.35

Can you handle CC(C)(C)CC(C)(C)NCc1ccccc1 next?
2.5

Now this one: Cc1ccc(S(=O)(=O)Oc2ccc(N(CC(=O)O)S(=O)(=O)c3ccc(C)cc3)cc2)cc1
29.4

---

# Assay details: NCI Yeast Anticancer Drug Screen. Data for the sgs1 mgt1 strain (AID 161);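 also: 0% = growth of cultures given vehicle only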
# Measurement conditions: S. cerevisiae sgs1 mgt1 strain, at 50.0 µM, stronger effect = higher value
The panel holds about 79,000 compounds, 15% with a hit somewhere; the sample as a whole holds those more often.
Measurement kind: growth inhibition (%)
Numbers only; they are read as %.

Below, 4 molecules whose answers are already recorded.
CN(C)CCNc1ccc2nnn3c4ccccc4c(=O)c1c23 | 11.2
O=C(O)C(C1=CCCCC1)C1(O)CCCCC1 (centres undefined) | 17.6
CSC1=Nc2cc3c(cc2C(=O)N2C[C@H](O)CC12)OCO3 (some centres undefined) | -10.9
CCCCN(CCCC)CC(O)c1cc(-c2cccc(I)c2)nc2c(Cl)cc(Cl)cc12 (centres undefined) | -4.75

# input for lookup
Field request: growth inhibition | item: CC1=NN(C(=O)CC(=O)Nc2ccccc2C)C(=O)C1N=Nc1ccc(S(=O)(=O)c2ccc(N=NC3C(=O)N(C(=O)CC(=O)Nc4ccccc4C)N=C3C)cc2)cc1 (centres undefined)
-2.25

---

# Assay details: NCI Yeast Anticancer Drug Screen. Data for the bub3 strain (AID 167)
# Measurement conditions: S. cerevisiae bub3 mutant strain, at 50.0 µM, stronger effect = higher value
This is part of a sample that, as a whole, favours compounds with a hit. Of some 79,000 tested, about 15% had one in any assay.
Measurement kind: growth inhibition (%)
Provide only the numeric value, understood in %.

The cases that follow already have their growth inhibition on record.
CC1(C)N=C(N)N=C(N)N1c1cccc(/C=C/c2ccc([N+](=O)[O-])cc2)c1 | -3.3
COc1cc2c(cc1OC)C(Cc1ccccc1CCCl)=NCC2 | -24.7
COc1cc2c(cc1OC)C(C(c1ccccc1)c1ccccc1)N(C)CC2 (stereo not drawn) | 3.25
CCN(CC)CC[n+]1ccc2c(C)c3[nH]c4ccccc4c3c(C)c2c1 | 31.3
N#CC1C=CN(Cc2ccccc2)C=C1C(=O)c1ccccc1 (stereo not drawn) | 7.6

State the recorded growth inhibition for this entry: COc1ccc2c(=O)c(O)c(-c3ccccc3)oc2c1
15.2

Then what about the compound CC(=O)Oc1cc2oc([O-])c[n+]2c2ccccc12 ?
12.6

And for CC1=CC(O)(c2ccccc2)C(N2CCOCC2)N1O (stereo not drawn) ?
23.4

Field entry: NC(=O)NOCC(N)C(=O)O (stereo not drawn)
5.35

Likewise for CN(C)CC1CCc2c(n(C)c3ccccc23)C1=O (stereo not drawn) ?
-4.35

Here is the next compound: CC(C)Oc1ccc(C(=O)OCCC(C)N2CCCC2)cc1 (stereo not drawn)
46.4

Further, for Ic1ccc2c[n+]3ccccc3cc2c1 ?
1.75

Record: COc1cc(C2c3cc4c(cc3OC(N3CCCCC3)C2C)OCO4)cc(OC)c1O (stereo not drawn)
-18.5

Another compound: O=C(OCCN1C(=O)c2cccc3c(Br)ccc(c23)C1=O)OCc1ccccc1
61.7

Further, for C/C=C/[C@@]1(OC(=O)c2ccccc2)C[C@@H]2CCCC[C@@H]21 ?
12.9

And the next one, CC(=O)N1C(=O)C(=O)c2ccccc21 ?
-1.5

Same again, this time with CCCCCCCCCCCCCCCCN1c2ccccc2C(C)(C)C12C=Cc1cccc([N+](=O)[O-])c1O2 (stereo not drawn)
-3.1

Query Clc1nc2ccccc2s1 next
-21.1

Same thing, different compound: O=C(O)c1ccccc1C(=O)OCc1ccccc1
8.25
